// data source = patent US8440710B2

target.under.test: human HSL (Homo sapiens)
Construct: generate a full length human HSL ORF with a 3′-His6 tag
Sequence (Q05469 1-1076): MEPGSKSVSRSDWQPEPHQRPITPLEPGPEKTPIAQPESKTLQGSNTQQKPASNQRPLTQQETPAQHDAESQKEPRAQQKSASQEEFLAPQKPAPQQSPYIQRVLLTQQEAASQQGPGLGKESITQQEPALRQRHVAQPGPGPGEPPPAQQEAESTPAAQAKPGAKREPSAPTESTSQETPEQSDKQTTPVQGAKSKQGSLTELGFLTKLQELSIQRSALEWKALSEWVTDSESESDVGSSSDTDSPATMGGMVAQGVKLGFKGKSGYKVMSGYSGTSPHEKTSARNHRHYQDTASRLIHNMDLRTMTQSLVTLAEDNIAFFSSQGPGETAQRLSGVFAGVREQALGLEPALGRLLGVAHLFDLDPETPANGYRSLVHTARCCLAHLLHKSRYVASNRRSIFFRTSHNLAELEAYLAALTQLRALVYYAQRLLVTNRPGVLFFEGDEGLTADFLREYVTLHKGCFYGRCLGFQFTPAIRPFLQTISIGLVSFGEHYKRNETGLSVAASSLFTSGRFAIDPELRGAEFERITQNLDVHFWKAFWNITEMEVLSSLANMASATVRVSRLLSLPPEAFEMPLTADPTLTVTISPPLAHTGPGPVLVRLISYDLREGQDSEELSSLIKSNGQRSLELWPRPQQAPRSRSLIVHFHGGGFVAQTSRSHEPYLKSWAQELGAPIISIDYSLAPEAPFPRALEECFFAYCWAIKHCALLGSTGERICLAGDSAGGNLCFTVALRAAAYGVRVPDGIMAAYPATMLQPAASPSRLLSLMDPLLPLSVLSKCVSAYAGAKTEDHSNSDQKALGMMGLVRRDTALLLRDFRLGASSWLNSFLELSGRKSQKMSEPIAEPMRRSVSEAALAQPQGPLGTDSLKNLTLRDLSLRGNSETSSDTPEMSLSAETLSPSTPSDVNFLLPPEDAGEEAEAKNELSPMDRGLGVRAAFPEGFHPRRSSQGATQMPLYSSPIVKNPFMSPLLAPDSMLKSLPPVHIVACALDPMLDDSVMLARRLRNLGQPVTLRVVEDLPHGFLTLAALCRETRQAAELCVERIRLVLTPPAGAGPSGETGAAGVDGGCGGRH
assay.comment: Human Hormone-Sensitive Lipase (HSL) enzyme inhibition assay (colorimetric, DMPT substrate)
condition: human full length HSL-His6, 2,3-dimercapto-1-propanol tributyrate substrate, 37° C. 20 minutes, absorbance at 405 nm; read-out: HSL hum IC50
outcome.measure: IC50 (nM)

Previously resolved entries follow.
* CC(C)C(O)[C@H]1CC[C@]2(CCN(c3ccc(C(C)(C)C)cc3)C2=O)CC1 (stereo partly shown) | 100
* O=C1N(c2ccc([C@@H](O)C(F)(F)F)cc2)CC[C@]12CC[C@@](O)(COCC(F)F)CC2 | 300

I = CC(=O)[C@]1(O)CC[C@]2(CCN(c3ccc(OCC(F)(F)F)cc3)C2=O)CC1
II = CC[C@]1(O)CC[C@]2(CCN(c3ccc(O[C@@H](C)C(F)(F)F)cc3)C2=O)CC1 [Example 165a]
Ask: Between I and II , which one has the lower reported IC50 value? Write down the label of the entry you select.
Reply: II
(II: 20 nM, I: 250 nM)
